# assayed_system: HIV-integrase (recombinant integrase) (Human immunodeficiency virus type 1 group M subtype B)
# Construct: Recombinant integrase (0.26 ng) was incubated with the beads
# assay_method_text: HIV-Integrase Inhibition Activity (SPA bead strand-transfer assay)
# details: recombinant integrase on biotin labeled substrate DNA/SPA beads, P33 labeled target DNA; read-out: Activity (IC50 against HIV-integrase)
pIC50: −log10 of the molar value.
measure_name: pIC50

Cc1cc(CNC(=O)c2nc(N3CCN(c4ccccc4)CC3)n(C)c(=O)c2O)ccc1F; 7.00 to 8.52

Please state pIC50 for every molecule in the list that follows.
1. Cn1c(N2CCCCS2(=O)=O)nc(C(=O)NCc2cccc(F)c2)c(O)c1=O
2. Cn1c(N2CCCCS2(=O)=O)nc(C(=O)NCc2cccc(Cl)c2)c(O)c1=O
3. Cn1c(N2CCCCS2(=O)=O)nc(C(=O)NCCCc2ccc(F)cc2)c(O)c1=O

### Response
1: 6.00 to 7.00; 2: 7.00 to 8.52; 3: 7.00 to 8.52
